Reported values of % inhibition of CDD hydrolysis for individual entries
test system: plasma esterases; assay: Inhibition of CDD hydrolysis in dog plasma by esterase inhibitors; format: biochemical, beagle dog; settings: inhibitor 1 mM, CDD 1.5 μM, 37 °C, 15 min
Use % as the unit, but write only the number.

Guide cases for % inhibition of CDD hydrolysis, answers given:
Compound | Recorded value
O=S(=O)(F)Cc1ccccc1 [PMSF, Phenylmethanesulfonyl fluoride] | 29.6
Cc1ccc(S(=O)(=O)N[C@@H](CCCCN)C(=O)CCl)cc1.Cl | 17.0
O=[N+]([O-])c1ccc(OP(=O)(O)Oc2ccc([N+](=O)[O-])cc2)cc1 [BNPP, Bis(4-nitrophenyl) phosphate] | 63.6
Cl.NCCc1ccc(S(=O)(=O)F)cc1 | 25.8
CC(C)NP(=O)(NC(C)C)OP(=O)(NC(C)C)NC(C)C [Iso-OMPA, tetraisopropyl pyrophosphoramide] | 17.6

Let us move to another entry and its % inhibition of CDD hydrolysis.
# O=C(O)c1cc(SSc2ccc([N+](=O)[O-])c(C(=O)O)c2)ccc1[N+](=O)[O-] with plasma esterases: % inhibition of CDD hydrolysis is 47.8

====

tested on: plasma esterases; experiment: Inhibition of CDD hydrolysis in dog plasma by esterase inhibitors; type: biochemical, beagle dog; details: inhibitor 0.1 mM, CDD 1.5 μM, 37 °C, 15 min
Observed property: % inhibition of CDD hydrolysis

Guide cases for % inhibition of CDD hydrolysis, answers given:
Compound | Observed property | Recorded value
Cl.NCCc1ccc(S(=O)(=O)F)cc1 | % inhibition of CDD hydrolysis | <10%
Cc1ccc(S(=O)(=O)N[C@@H](CCCCN)C(=O)CCl)cc1.Cl | % inhibition of CDD hydrolysis | <10%
O=C(O)c1cc(SSc2ccc([N+](=O)[O-])c(C(=O)O)c2)ccc1[N+](=O)[O-] | % inhibition of CDD hydrolysis | <10%
O=S(=O)(F)Cc1ccccc1 [PMSF, Phenylmethanesulfonyl fluoride] | % inhibition of CDD hydrolysis | <10%
O=[N+]([O-])c1ccc(OP(=O)(O)Oc2ccc([N+](=O)[O-])cc2)cc1 [BNPP, Bis(4-nitrophenyl) phosphate] | % inhibition of CDD hydrolysis | 16.6 ± 8.2%

Let us move to another entry and its % inhibition of CDD hydrolysis.
// recorded % inhibition of CDD hydrolysis for CC(C)NP(=O)(NC(C)C)OP(=O)(NC(C)C)NC(C)C [Iso-OMPA, tetraisopropyl pyrophosphoramide] : 16.9 ± 7.1%

====

system: plasma esterases; test: Inhibition of CDD hydrolysis in human plasma by esterase inhibitors; format: biochemical; conditions: inhibitor 1 mM, CDD 1.5 μM, 37 °C, 5 min
Observed property: % inhibition of CDD hydrolysis

Guide cases for % inhibition of CDD hydrolysis, answers given:
Compound | Observed property | Recorded value
CC(C)NP(=O)(NC(C)C)OP(=O)(NC(C)C)NC(C)C [Iso-OMPA, tetraisopropyl pyrophosphoramide] | % inhibition of CDD hydrolysis | <10%
O=S(=O)(F)Cc1ccccc1 [PMSF, Phenylmethanesulfonyl fluoride] | % inhibition of CDD hydrolysis | <10%
O=C(O)c1cc(SSc2ccc([N+](=O)[O-])c(C(=O)O)c2)ccc1[N+](=O)[O-] [DTNB, 5,5′-dithiobis-2-nitrobenzoic acid] | % inhibition of CDD hydrolysis | 52.0 ± 1.5%

// recorded % inhibition of CDD hydrolysis for Cc1ccc(S(=O)(=O)N[C@@H](CCCCN)C(=O)CCl)cc1.Cl [TLCK] : <10%

// recorded % inhibition of CDD hydrolysis for O=[N+]([O-])c1ccc(OP(=O)(O)Oc2ccc([N+](=O)[O-])cc2)cc1 [BNPP, Bis(4-nitrophenyl) phosphate] : 42.2 ± 6.7%

// recorded % inhibition of CDD hydrolysis for Cl.NCCc1ccc(S(=O)(=O)F)cc1 [Pefabloc® SC] : <10%
